Catalogue of IC50 readings, one per entry.
# Tested on: 242566-281-R-J2-PDC complex spheroid viability;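 note: spheroids exposed to compound for 7 days before readout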
# Test Description: Anticancer human tumor 242566-281-R-J2-PDC patient-derived pancreatic carcinoma cell line growth inhibition [RAS]
# Assay Conditions: curve of first compound; second compound 0.000949 µM

Compound: C=CC(=O)Nc1cc(Nc2nccc(-c3cn(C)c4ccccc34)n2)c(OC)cc1N(C)CCN(C)C + CCn1c(-c2cccnc2C(C)OC)c2c3cc(ccc31)N1CCOC(CC(NC(=O)C(C(C)C)N(C)C(=O)C3(F)CCN(C(=O)C#CC(C)(C)N(C)C)CC3)C(=O)N3CCCC(N3)C(=O)OCC(C)(C)C2)C1
IC50: > 1000 nM

GET /values?readout=IC50&item= CC(=O)OC12COC1CC(O)C1(C)C(=O)C(O)C3=C(C)C(OC(=O)C(O)C(NC(=O)OC(C)(C)C)c4ccccc4)CC(O)(C(OC(=O)c4ccccc4)C21)C3(C)C (stereo unspecified) + CCn1c(-c2cccnc2C(C)OC)c2c3cc(ccc31)N1CCOC(CC(NC(=O)C(C(C)C)N(C)C(=O)C3(F)CCN(C(=O)C#CC(C)(C)N(C)C)CC3)C(=O)N3CCCC(N3)C(=O)OCC(C)(C)C2)C1 < 31.6 nM

// query: C[C@@H](NC(=O)c1ncnc(N)c1Cl)c1ncc(C(=O)Nc2cc(C(F)(F)F)c(Cl)cn2)s1 + CCn1c(-c2cc(N3CCN(C)CC3)cnc2C(C)OC)c2c3cc(ccc31)-c1csc(n1)CC(NC(=O)C1CC1C)C(=O)N1CCCC(N1)C(=O)OCC(C)(C)C2 > 10000 nM

Note, next up: CCN1CCN(Cc2ccc(Nc3ncc(F)c(-c4cc(F)c5nc(C)n(C(C)C)c5c4)n3)nc2)CC1 + CCn1c(-c2cccnc2C(C)OC)c2c3cc(ccc31)N1CCOC(CC(NC(=O)C(C(C)C)N(C)C(=O)C3(F)CCN(C(=O)C#CC(C)(C)N(C)C)CC3)C(=O)N3CCCC(N3)C(=O)OCC(C)(C)C2)C1 > 1000 nM

Then what about the compound C=CC(=O)N1CCN(c2nc(OCC3CCCN3C)nc3c(F)c(-c4nc(N)cc(C)c4C(F)(F)F)c(Cl)cc23)C(C)C1 (stereo unspecified) + CCn1c(-c2cccnc2C(C)OC)c2c3cc(ccc31)N1CCOC(CC(NC(=O)C(C(C)C)N(C)C(=O)C3(F)CCN(C(=O)C#CC(C)(C)N(C)C)CC3)C(=O)N3CCCC(N3)C(=O)OCC(C)(C)C2)C1 ? > 1000 nM

Ok, now CC(C)NCC(C(=O)N1CCN(c2ncnc3c2C(C)CC3O)CC1)c1ccc(Cl)cc1 (stereo unspecified) + CCn1c(-c2cccnc2C(C)OC)c2c3cc(ccc31)N1CCOC(CC(NC(=O)C(C(C)C)N(C)C(=O)C3(F)CCN(C(=O)C#CC(C)(C)N(C)C)CC3)C(=O)N3CCCC(N3)C(=O)OCC(C)(C)C2)C1 > 10000 nM
